Below, each entry is listed alongside its reported inhibition.
# test.system: C-X-C chemokine receptor type 6 (Homo sapiens) (UniProt O00574)
# Sequence (O00574 whole entry, looked up): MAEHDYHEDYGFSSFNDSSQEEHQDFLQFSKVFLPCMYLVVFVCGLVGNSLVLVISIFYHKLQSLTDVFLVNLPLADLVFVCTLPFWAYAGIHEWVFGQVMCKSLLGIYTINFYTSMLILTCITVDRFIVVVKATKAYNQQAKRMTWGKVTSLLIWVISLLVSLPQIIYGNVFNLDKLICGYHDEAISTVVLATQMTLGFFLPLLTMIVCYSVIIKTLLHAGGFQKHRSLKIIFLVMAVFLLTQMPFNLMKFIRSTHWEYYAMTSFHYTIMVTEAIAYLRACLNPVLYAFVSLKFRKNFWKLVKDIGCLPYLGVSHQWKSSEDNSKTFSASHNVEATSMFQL
# experiment: blockade of CXCL16-induced CXCR6 beta-arrestin recruitment – cell-based, luminescence, CHO-K1 PathHunter, 1536-well, primary screen (AID 602244);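 note: antagonist mode with CXCL16 agonist at 10 nM final; 0% = 10 nM CXCL16 with DMSO and 100% = unstimulated wells without agonist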
# test.parameters: at 20 µM, stronger effect = higher value
The whole screen tested about 360,000 compounds, of which about 1,300 (0.36%) were called active. The sample as a whole holds a higher share of actives than the screen did.
Form entry: value (%) — number only.

// known answers, use as guide
compound	data.value
Cc1cc(/C=C2/SC(=O)N(CC(=O)OC(C)C)C2=O)c(C)n1C	1.9
O=C(NCCCc1ccccc1)c1cc(COc2c(F)cccc2F)on1	7.9
COc1ccc(CNC(=O)[C@@H]2CC=C[C@@H]3CCN(C4CC4)C(=O)[C@@H]32)cc1	-0.1
CC(C)c1ccc(S(=O)(=O)N2CCC3(CC2)OCCO3)cc1	-0.4

Give C-X-C chemokine receptor type 6 (Homo sapiens) (UniProt O00574) inhibition for Cc1ccc(S(=O)(=O)CCC(=O)OCC(=O)N(C)Cc2ccccc2)cc1
0.4

Give C-X-C chemokine receptor type 6 (Homo sapiens) (UniProt O00574) inhibition for Cc1ccc(S(=O)(=O)N2CC[C@H]3[C@@H](C2)C(=O)C[C@@H](c2ccccc2)N3S(=O)(=O)c2ccc(C)cc2)cc1
-1.4

Give C-X-C chemokine receptor type 6 (Homo sapiens) (UniProt O00574) inhibition for NC(=O)c1ccc(N2CCCC2)nc1
1

Give C-X-C chemokine receptor type 6 (Homo sapiens) (UniProt O00574) inhibition for CC(CC(=O)Nc1ccc(F)cc1F)S(=O)(=O)c1ccc2c(c1)NC(=O)CO2 (stereo not given)
6.2

Give C-X-C chemokine receptor type 6 (Homo sapiens) (UniProt O00574) inhibition for O=C(NCc1ccccc1)C1c2ccccc2OCC(=O)N1CCCN1CCOCC1 (stereo not given)
3.7

====

# test.system: C-X-C chemokine receptor type 6 (Homo sapiens) (UniProt O00574)
# experiment: blockade of CXCL16-induced CXCR6 beta-arrestin recruitment – cell-based, luminescence, CHO-K1 PathHunter, 1536-well, primary screen (AID 602244);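 note: antagonist mode with CXCL16 agonist at 10 nM final; 0% = 10 nM CXCL16 with DMSO and 100% = unstimulated wells without agonist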
# test.parameters: at 20 µM
Out of some 360,000 compounds screened, about 1,300 (0.36%) were called active. Cut-off read from the data, not from the text of the source: active = inhibition above about 34% (passing the limit was not always enough); inactive = the rest. The list comes from a sample in which actives are over-represented; it also holds close analogues and randomly drawn compounds.
Result category, one only: active, inactive

Worked set:
molecule	class.assignment
Cc1ccc(C(=O)CNc2ccc(F)cc2)cc1	active
CCCCNC(=S)N/N=C1\CCCCc2ccccc21	active
O=C(NCc1ccccc1)C1=C[C@@H](C2CCCCC2)C[C@@H](OCc2ccc(CO)cc2)O1	inactive
CCCCCCCCCCOC(=O)Cn1c(COc2cccc(OC)c2)[n+](C)c2ccccc21	active
CC(C)Cc1cc(C(=O)NCCc2ccccc2)no1	inactive
CCCCc1nc2cc(C(=O)N3CCCCC3CCO)ccc2o1 (stereo unspecified)	inactive

Next:
Fill in: this test's call for Cc1ccc(CCNC(=O)C2CCN(S(=O)(=O)N3CCCC3)CC2)cc1 is ___
inactive

====

# test.system: C-X-C chemokine receptor type 6 (Homo sapiens)
# experiment: blockade of CXCL16-induced CXCR6 beta-arrestin recruitment – cell-based, luminescence, CHO-K1 PathHunter, 1536-well, primary screen (AID 602244);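 note: antagonist mode with CXCL16 agonist at 10 nM final; 0% = 10 nM CXCL16 with DMSO and 100% = unstimulated wells without agonist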
# test.parameters: at 20 µM, stronger effect = higher value
The whole screen tested about 360,000 compounds, of which about 1,300 (0.36%) were called active. Many of the other results were omitted from the sample, so actives are more common in it than they were.
assay.endpoint: inhibition

// known answers, use as guide
molecule	inhibition
CCc1ccccc1N(CC(=O)N1CCN(c2ccccc2F)CC1)S(C)(=O)=O	1.2% (inactive)
CC1CN(c2cc(=O)n(-c3cccc(Br)c3)c(=O)[nH]2)CC(C)O1 (centres undefined)	-4.7% (inactive)
Cc1cc(C)c(C)c(S(=O)(=O)N[C@@H](C)C(=O)OC(C)C(=O)NC(N)=O)c1C (some centres undefined)	7% (inactive)

Give C-X-C chemokine receptor type 6 (Homo sapiens) inhibition for CCN(CC)P(=O)(/C(Cl)=C\Nc1c(C)n(C)n(-c2ccccc2)c1=O)N(CC)CC
9.1% (inactive)

====

# test.system: C-X-C chemokine receptor type 6 (Homo sapiens) (UniProt O00574)
# experiment: blockade of CXCL16-induced CXCR6 beta-arrestin recruitment – cell-based, luminescence, CHO-K1 PathHunter, 1536-well, primary screen (AID 602244);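 note: antagonist mode with CXCL16 agonist at 10 nM final; 0% = 10 nM CXCL16 with DMSO and 100% = unstimulated wells without agonist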
# test.parameters: at 20 µM, stronger effect = higher value
Out of some 360,000 compounds screened, about 1,300 (0.36%) were called active. What follows is part of a selection rich in actives, with near analogues and random picks from the rest.
assay.endpoint: inhibition

// known answers, use as guide
compound	assay.endpoint	data.value
COc1cc(C(C)=O)ccc1OC(=O)CN1C(=O)c2ccccc2C1=O	inhibition	1.2% (inactive)
COc1ccc(CN2CCNC(=O)C2CC(=O)NCc2cn[nH]c2-c2ccccc2)c(F)c1 (stereo not given)	inhibition	-0.4% (inactive)
O=C(OC1CCCCC1=O)c1cccc(S(=O)(=O)NCc2ccccc2)c1 (stereo not given)	inhibition	7.3% (inactive)
CCCNC(=O)c1onc(CSc2ccc(F)cc2)c1C(=O)NC(C)C	inhibition	2.3% (inactive)

Consider the record given below.
Param item = Cc1cc(C(=O)NCCCc2ccccc2)no1 ; retrieve measured inhibition.
48.5% (active)
